Each entry below carries its reported % of cells in the positive gate V1R.
- test system: T1, C-terminal flag-tagged ACPP transmembrane protein expressed on 293T cells (pcDNA-ACPP-flag)
- T1 sequence: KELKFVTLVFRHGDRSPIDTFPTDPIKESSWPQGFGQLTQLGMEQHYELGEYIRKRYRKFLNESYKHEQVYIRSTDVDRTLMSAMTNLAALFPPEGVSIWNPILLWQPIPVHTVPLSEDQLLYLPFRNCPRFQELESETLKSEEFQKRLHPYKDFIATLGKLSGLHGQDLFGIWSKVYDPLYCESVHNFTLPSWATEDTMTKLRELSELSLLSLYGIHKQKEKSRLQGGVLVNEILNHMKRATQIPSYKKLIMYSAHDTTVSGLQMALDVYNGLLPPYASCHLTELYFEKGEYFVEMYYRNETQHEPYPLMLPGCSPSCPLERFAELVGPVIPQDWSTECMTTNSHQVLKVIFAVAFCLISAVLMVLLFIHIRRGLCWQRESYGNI
- experiment notes: flow cytometry on 293T cells transfected with pcDNA-ACPP-flag, surface staining without permeabilisation, goat anti human-FITC secondary antibody
Write down the numeric answer in % and omit the unit.

binder | value unit | recorded number
ACPP antibody S12D4 (human full antibody) (antibody, V domains shown) VH: QMQLVQSGAEVRRPGSSVKVSCKTSGGTLNNYDINWVRQAPGQGLEWMGWMNPTSGQADFAQKFQGRVSMTRDTSINTAFMELNTLRSEDTAVYYCVRRGGKYWGQGTLVTVSS VL: QPVLTQDPAVSVALGQTVRITCQGDSLRKYYASWYQQKPGQAPRLVMYDENDRPSGIPDRFSGSSSGNTASLTITGAQADDEADYYCNSRDSSGHHVVFGGGTKVTVL | % | 0.06
ACPP antibody S9F5 (human full antibody) (antibody, V domains shown) VH: EVQLVESGGGLVQPGGSLRLSCAASGFTFSNYWMSWVRQAPGKGLEWVAGISASGGNKYYADSVKGRFTISRDNSKNTLYLQMNSLRAEDTAVYYCAKGPIQLKRHKYVLDYWGQGTLVTVSS VL: SYELTQPPSVSVAPGQTARITCGGDALPNNSVRWYQQKPGQAPVLVIYGNSERPSGIPERFSGSNSGNTATLTISGTQAEDEADYYCQVSDKSTKYSVFGGGTKLTVL | % | 0.15
ACPP antibody S12D9 (human full antibody) (antibody, V domains shown) VH: EVQLVQSGAEVRKPGSSVKVSCKASGDNFNNYGITWVRQAPGQGLEWMGRLITVLGLDNYAQKFQGRLTITADESTGTAYMELTGLEPEDTAVYYCARDIMSPEAIDAFDVWGQGTLVTVSS VL: QPVLTQDPVVSVALGQTVRITCQGDSLRSYYATWYQQKPGLAPVRVIFGKNSRPSGIPDRFSGSSSGNTASLTITGAQAEDEADYYCNSWDNSANHPVFGGGTKLTVL | % | 0.01

Next item in the queue.
I am curious: what % of cells in the positive gate V1R value has been reported for ACPP antibody S10E12 (human full antibody) (antibody, V domains shown) VH: EVQLVQSGAEVRKPGSSVKVSCKASGDNFNNYGITWVRQAPGQGLEWMGRLITVLGLDNYAQKFQGRLTITADESTGTAYMELTGLEPEDTAVYYCARDIMSPEAIDAFDVWGQGTLVTVSS VL: DIQMTQSPSSLSASVGDRVTITCRASQDVSNYLNWYQQKPGKAPKLLIYGASNRQTGVPSRFSGSGSGTDFTLTISSLQPEDFATYYCQQEDRFPTTFGQGTKVEIK ?
0.18
